Give IC50 for every item shown.
target: RAC-alpha serine/threonine-protein kinase (Homo sapiens, UniProt P31749)
Sequence (P31749 whole entry): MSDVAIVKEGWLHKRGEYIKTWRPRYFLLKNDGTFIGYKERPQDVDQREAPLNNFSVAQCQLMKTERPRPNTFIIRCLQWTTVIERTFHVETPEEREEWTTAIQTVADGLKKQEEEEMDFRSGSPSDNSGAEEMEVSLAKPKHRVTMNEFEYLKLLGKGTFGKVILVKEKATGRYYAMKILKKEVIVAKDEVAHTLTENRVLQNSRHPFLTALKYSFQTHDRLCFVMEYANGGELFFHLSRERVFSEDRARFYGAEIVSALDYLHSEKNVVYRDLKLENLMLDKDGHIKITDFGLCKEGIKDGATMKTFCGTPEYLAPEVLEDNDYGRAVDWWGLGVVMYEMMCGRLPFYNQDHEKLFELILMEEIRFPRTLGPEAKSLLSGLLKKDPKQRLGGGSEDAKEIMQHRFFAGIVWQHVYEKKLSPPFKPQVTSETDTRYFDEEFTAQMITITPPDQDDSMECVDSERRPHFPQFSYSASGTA
# value in nM; strip the unit string

### Prompt Requested field: IC50. Item: CCn1c(-c2nonc2N)nc2c(C#CC(C)(C)O)nc(OC[C@@H](N)c3ccccc3)cc21 [GSK-938890A]
### Response 5

### Prompt Requested field: IC50. Item: CCn1c(-c2nonc2N)nc2c(C#CC(C)(C)O)nc(OC[C@H](N)c3ccccc3)cc21 [GSK-943949A]
### Response 3

### Prompt Requested field: IC50. Item: `CCn1c(-c2nonc2N)nc2c(C#CC(C)(C)O)nc(OCCN)cc21`
### Response 5

### Prompt Requested field: IC50. Item: `CCn1c(-c2nonc2N)nc2c(C#CC(C)(C)O)nc(O[C@@H](CN)c3ccccc3)cc21`
### Response 1

### Prompt Requested field: IC50. Item: `CCn1c(-c2nonc2N)nc2c(C#CC(C)(C)O)nc(CNC)cc21`
### Response 3

====

biological target: RAC-gamma serine/threonine-protein kinase (Homo sapiens, UniProt Q9Y243)
Sequence (Q9Y243 whole entry): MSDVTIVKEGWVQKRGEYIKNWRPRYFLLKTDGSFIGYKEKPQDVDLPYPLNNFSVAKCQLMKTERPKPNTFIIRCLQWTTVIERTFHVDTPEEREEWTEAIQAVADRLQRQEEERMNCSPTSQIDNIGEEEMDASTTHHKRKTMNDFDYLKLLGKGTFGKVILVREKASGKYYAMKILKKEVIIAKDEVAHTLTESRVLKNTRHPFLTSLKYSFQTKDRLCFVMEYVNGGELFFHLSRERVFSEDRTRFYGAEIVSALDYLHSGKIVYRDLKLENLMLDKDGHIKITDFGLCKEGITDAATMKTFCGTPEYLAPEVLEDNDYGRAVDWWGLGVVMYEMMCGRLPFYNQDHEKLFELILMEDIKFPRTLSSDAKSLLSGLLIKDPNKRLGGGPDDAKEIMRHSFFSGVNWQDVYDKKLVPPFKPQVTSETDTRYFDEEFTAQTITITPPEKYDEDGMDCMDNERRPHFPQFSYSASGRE
Give pIC50 for every item shown.
pIC50 field: float, defined as -log10 of concentration (mol/L).

### Prompt Requested field: pIC50. Item: CCn1c(-c2nonc2N)nc2c(C#CC(C)(C)O)nc(CN3CCCC3)cc21 [GSK-1000163A]
### Response 7.66

### Prompt Requested field: pIC50. Item: `CCn1c(-c2nonc2N)nc2c(C#CC(C)(C)O)nc(CCCN)cc21`
### Response 7.52

### Prompt Requested field: pIC50. Item: CCn1c(-c2nonc2N)nc2c(C#CC(C)(C)O)nc(OC[C@@H](N)c3ccccc3)cc21 [GSK-938890A]
### Response 7.31

### Prompt Requested field: pIC50. Item: `CCn1c(-c2nonc2N)nc2c(C#CC(C)(C)O)nc(OC[C@H](N)Cc3ccccc3)cc21`
### Response 8.52

### Prompt Requested field: pIC50. Item: CCn1c(-c2nonc2N)nc2c(C#CC(C)(C)O)nc(OC[C@H](N)c3ccccc3)cc21 [GSK-943949A]
### Response 7.77

### Prompt Requested field: pIC50. Item: `CCn1c(-c2nonc2N)nc2c(C#CC(C)(C)O)nc(OCCN)cc21`
### Response 7.37

### Prompt Requested field: pIC50. Item: `CCn1c(-c2nonc2N)nc2c(C#CC(C)(C)O)nc(O[C@H](CCN)c3ccccc3)cc21`
### Response 7.19

====

tested on: BT-474; assay: Antiproliferative activity against human BT474 cells; format: functional, cell-based
measurement_kind: log10(IC50) (log10 of the value in nM)
Remember, log10 of IC50, in nM.

### Prompt Requested field: log10(IC50). Item: `CCn1c(-c2nonc2N)nc2c(C#CC(C)(C)O)nc(CCCN)cc21`
### Response 3.55

### Prompt Requested field: log10(IC50). Item: CCn1c(-c2nonc2N)nc2c(C#CC(C)(C)O)nc(CN3CCCC3)cc21 [GSK-1000163A]
### Response 3.10

### Prompt Requested field: log10(IC50). Item: `CCn1c(-c2nonc2N)nc2c(C#CC(C)(C)O)nc(OC[C@H](C)N)cc21`
### Response 3.69

### Prompt Requested field: log10(IC50). Item: `CCn1c(-c2nonc2N)nc2c(C#CC(C)(C)O)nc(O[C@H](CCN)c3ccccc3)cc21`
### Response 2.35

### Prompt Requested field: log10(IC50). Item: `CCn1c(-c2nonc2N)nc2c(C#CC(C)(C)O)nc(CNC)cc21`
### Response 2.64

### Prompt Requested field: log10(IC50). Item: CCn1c(-c2nonc2N)nc2c(C#CC(C)(C)O)nc(OC[C@@H](N)c3ccccc3)cc21 [GSK-938890A]
### Response 3.54

### Prompt Requested field: log10(IC50). Item: `CCn1c(-c2nonc2N)nc2c(C#CC(C)(C)O)nc(OCCN)cc21`
### Response 3.03

### Prompt Requested field: log10(IC50). Item: `CCn1c(-c2nonc2N)nc2c(C#CC(C)(C)O)nc(OCCCN)cc21`
### Response 3.85

### Prompt Requested field: log10(IC50). Item: `CCn1c(-c2nonc2N)nc2c(C#CC(C)(C)O)nc(O[C@H](CN)c3ccccc3)cc21`
### Response 2.09

### Prompt Requested field: log10(IC50). Item: `CCn1c(-c2nonc2N)nc2c(C#CC(C)(C)O)nc(OC[C@@H](N)Cc3ccccc3)cc21`
### Response 3.18

### Prompt Requested field: log10(IC50). Item: `CCn1c(-c2nonc2N)nc2c(C#CC(C)(C)O)nc(CN(C)C)cc21`
### Response 2.55

### Prompt Requested field: log10(IC50). Item: `CCn1c(-c2nonc2N)nc2c(C#CC(C)(C)O)nc(O[C@@H](CCN)c3ccccc3)cc21`
### Response 0.00

### Prompt Requested field: log10(IC50). Item: `CCn1c(-c2nonc2N)nc2c(C#CC(C)(C)O)nc(OCCNC)cc21`
### Response 3.50

### Prompt Requested field: log10(IC50). Item: CCn1c(-c2nonc2N)nc2c(C#CC(C)(C)O)nc(OC[C@H](N)c3ccccc3)cc21 [GSK-943949A]
### Response 3.32

### Prompt Requested field: log10(IC50). Item: `CCn1c(-c2nonc2N)nc2c(C#CC(C)(C)O)nc(CCN)cc21`
### Response 3.04

### Prompt Requested field: log10(IC50). Item: `CCn1c(-c2nonc2N)nc2c(C#CC(C)(C)O)nc(CN)cc21`
### Response 2.91

### Prompt Requested field: log10(IC50). Item: `CCn1c(-c2nonc2N)nc2c(C#CC(C)(C)O)nc(OC[C@H](N)Cc3ccccc3)cc21`
### Response 2.87

### Prompt Requested field: log10(IC50). Item: `CCn1c(-c2nonc2N)nc2c(C#CC(C)(C)O)nc(OCCCCN)cc21`
### Response 4.30

### Prompt Requested field: log10(IC50). Item: `CCn1c(-c2nonc2N)nc2c(C#CC(C)(C)O)ncc(OC[C@H]3CCCNC3)c21`
### Response 1.84

### Prompt Requested field: log10(IC50). Item: `CCn1c(-c2nonc2N)nc2c(C#CC(C)(C)O)nc(OC[C@@H](C)N)cc21`
### Response 2.93

### Prompt Requested field: log10(IC50). Item: `CCn1c(-c2nonc2N)nc2c(C#CC(C)(C)O)nc(O[C@@H](CN)c3ccccc3)cc21`
### Response 1.54

Data credit: ChEMBL document CHEMBL1157000
